Origin of measurements: ChEMBL document CHEMBL3734664

experimental details: physchem
condition description: buffer, pH 7.4, logD
Description: Lipophilicity, log D of the compound at pH 7.4 by microscale shake flask method
metric name: logD

Solved cases below.
compound	assay value
Cc1nc2cnc(Nc3ccnc(/C=C/C(C)(C)C(N)=O)n3)cc2n1C(C)C	2.2
COC1CCN(c2nccc(Nc3cc4c(cn3)ncn4C3CCCC3)n2)CC1	2.9
COC1CCN(c2nccc(Nc3cc4c(cn3)ncn4C3CC3)n2)CC1	2.3

I. CCC(C)n1cnc2cnc(Nc3ccnc(N4CCC(OC)CC4)n3)cc21 (racemic; form 1)
II. CC(C)n1c(CO)nc2cnc(Nc3ccnc(N4CC[C@H](O)[C@H](F)C4)n3)cc21 (racemic)
Select one. Lower logD: I or II Refer to your chosen entry by its label in the reply.
II
